Provenance of the data: patent US20140058068A1

Consider the following binders; for each one, report its Relative affinity (Binding potency) vs JI-38.
Test System: T1, GHRH receptor of human pituitary membrane homogenates (human, UniProt Q02643 23-423)
T1 construct: whole, on cells; Native receptor in pituitary membrane homogenates, not intact cells; also called hGH-RH receptor
T1 sequence (looked up): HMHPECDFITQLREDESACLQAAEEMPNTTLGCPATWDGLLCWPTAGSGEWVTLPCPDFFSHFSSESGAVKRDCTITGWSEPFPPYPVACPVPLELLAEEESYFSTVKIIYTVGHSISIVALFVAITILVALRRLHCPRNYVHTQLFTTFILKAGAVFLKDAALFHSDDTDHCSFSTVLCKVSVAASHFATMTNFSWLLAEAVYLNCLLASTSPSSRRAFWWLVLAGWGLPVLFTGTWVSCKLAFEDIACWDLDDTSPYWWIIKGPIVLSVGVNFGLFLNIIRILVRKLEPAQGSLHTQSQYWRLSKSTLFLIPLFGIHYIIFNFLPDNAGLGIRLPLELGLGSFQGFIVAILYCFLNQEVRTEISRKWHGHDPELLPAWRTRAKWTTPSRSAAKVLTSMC
Protocol Summary: radioligand competition, 125I-JV-1-42 (~0.2 nM) as competitor, human pituitary membrane homogenates
Square brackets hold non-standard residues; d marks the D form. Ends that are not written are not given here. NMeY = CN[C@@H](Cc1ccc(O)cc1)C(=O)O; Nle = CCCC[C@H](N)C(=O)O; Orn = NCCC[C@H](N)C(=O)O; Abu = CC[C@H](N)C(=O)O

Entry under review: [NMeY]ADAIFTQSYR[Orn]VL[Abu]QLSAR[Orn]LLQDI[Nle]DR-NHMe (also called Peptide 27406) [[N-Me-Tyr^1, Gln^8, Orn^12, Abu^15, Orn^21, Nle^27, Asp^28]hGH-RH(1-29)NH-CH3] . Reported Relative affinity (Binding potency) vs JI-38?
14.5 fold, JI-38 = 1

Need Relative affinity (Binding potency) vs JI-38 of [NMeY][dA]DAIFTQSYR[Orn]VL[Abu]QLSAR[Orn]LLQDI[Nle]DR-NHEt (also called Peptide 28420) [[N-Me-Tyr^1, D-Ala^2, Gln^8, Orn^12, Abu^15, Orn^21, Nle^27, Asp^28]hGH-RH(1-29)NH-CH2-CH3] , thanks.
8.37 fold, JI-38 = 1

May I ask what Relative affinity (Binding potency) vs JI-38 has been recorded for [NMeY]ADAIFTQSYR[Orn]VL[Abu]QLSAR[Orn]LLQDI[Nle]SR-NHMe [[N-Me-Tyr^1, Gln^8, Orn^12, Abu^15, Orn^21, Nle^27]hGH-RH(1-29)NH-CH3] ?
4.03 fold, JI-38 = 1
